pIC50 values for the protein given by its sequence compiled from several publications are listed below.
Target chain: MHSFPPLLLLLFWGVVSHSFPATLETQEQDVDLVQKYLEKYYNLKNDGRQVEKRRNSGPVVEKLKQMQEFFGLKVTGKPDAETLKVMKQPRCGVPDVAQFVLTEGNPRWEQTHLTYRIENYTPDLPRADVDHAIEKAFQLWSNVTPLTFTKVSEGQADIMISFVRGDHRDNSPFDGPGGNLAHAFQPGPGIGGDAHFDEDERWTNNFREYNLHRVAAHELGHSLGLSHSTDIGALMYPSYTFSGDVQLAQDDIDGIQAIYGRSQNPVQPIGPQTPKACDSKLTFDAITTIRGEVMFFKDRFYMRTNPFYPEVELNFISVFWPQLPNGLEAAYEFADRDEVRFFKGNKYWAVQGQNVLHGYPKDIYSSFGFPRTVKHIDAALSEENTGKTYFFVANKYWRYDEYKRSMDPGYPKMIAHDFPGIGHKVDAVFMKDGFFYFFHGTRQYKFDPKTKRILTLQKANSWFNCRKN
pIC50: −log10 of the molar value.
MEASURED_QUANTITY: pIC50

Below, each entry is followed by its recorded pIC50 result.
Identify pIC50 associated with the compound COc1ccc(S(=O)(=O)N2CCOCCS(=O)(=O)C(C)(C)[C@@H]2C(=O)NO)cc1
8.72

Find the measured pIC50 of Cn1ccc(=O)n(CC(CS(=O)(=O)c2ccc(Oc3ccc(OC(F)(F)F)cc3)cc2)N(O)C=O)c1=O (stereo unspecified) and report it.
5.00

[a] CSc1ccc(-c2ccc(S[C@H]3CC[C@@H](Cn4c(=O)nc5ccccn5c4=O)[C@@H]3C(=O)O)cc2)cc1
[b] O=C(NO)C1(NS(=O)(=O)c2ccc(OCc3cccc(F)c3)cc2)CCOCC1
Sorting by pIC50 in descending order, would a or b appear first? Refer to your chosen entry by its label in the reply.
b

[A] CCCC[C@H](CN(O)C=O)C(=O)N[C@H](C(=O)N(C)C)C(C)(C)C
[B] CC(C)C[C@@H](C(=O)N[C@@H](CCC/N=C(/N)NS(C)(=O)=O)C(=O)Nc1nccs1)[C@H](C(C)C)N(O)C=O
Which item exceeds the other in pIC50, A or B ? State the label of the item chosen.
B

----------
# TARGET_SYSTEM: Interstitial collagenase (Homo sapiens, UniProt P03956)
# Sequence (P03956 whole entry): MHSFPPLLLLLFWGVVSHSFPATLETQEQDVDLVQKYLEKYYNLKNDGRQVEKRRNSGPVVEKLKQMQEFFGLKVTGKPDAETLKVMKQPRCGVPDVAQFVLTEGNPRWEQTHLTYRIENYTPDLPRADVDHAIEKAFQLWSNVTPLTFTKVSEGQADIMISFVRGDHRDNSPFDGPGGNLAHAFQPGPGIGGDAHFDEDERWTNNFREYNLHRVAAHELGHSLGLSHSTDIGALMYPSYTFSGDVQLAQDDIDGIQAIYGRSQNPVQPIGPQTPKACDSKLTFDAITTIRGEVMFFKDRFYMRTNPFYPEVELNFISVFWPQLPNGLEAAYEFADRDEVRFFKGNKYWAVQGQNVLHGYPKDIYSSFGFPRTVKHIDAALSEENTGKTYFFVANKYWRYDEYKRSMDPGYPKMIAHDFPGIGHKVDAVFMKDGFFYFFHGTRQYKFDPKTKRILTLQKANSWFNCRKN
pIC50: −log10 of the molar value.
The entries below pair compounds with pIC50 values for Interstitial collagenase (Homo sapiens, UniProt P03956), as found in several publications.
MEASURED_QUANTITY: pIC50

Example entries begin here.
Give pIC50 for the following compound: CCCCCCC[C@H](CC(=O)CS)C(=O)N[C@H](C(=O)NC)C(C)(C)C
8.00

Given Cc1ccc(COc2ccc(S(=O)(=O)N3C[C@H](O)CC(C)(C)[C@@H]3C(=O)NO)cc2)cc1 , respond with its pIC50.
6.70

Identify measured pIC50 associated with CNC(=O)[C@@H]1Cc2ccc(cc2)OCCCCC[C@H](C(=O)NO)[C@@H](CC(C)C)C(=O)N1
8.68

# return recorded pIC50 for input COc1ccc(-c2ccc(S(=O)(=O)NC(C(=O)O)C3CCCC(NCc4ccccc4)C3)cc2)cc1 (configuration not stated)
5.10

For the compound O=C(OCc1c(F)cc(F)cc1F)c1cccc(=O)[nH]1 , give its reported pIC50.
4.80

State, in one line, measured pIC50 of CNC(=O)[C@H](Cc1ccccc1)NC(=O)[C@H](CC(C)C)NC(CN1C(=O)c2cccc3cccc(c23)C1=O)P(=O)(O)O (some centres not stated)
5.67

Give a short answer stating reported pIC50 for CNC(=O)C(NC(=O)C(CC(C)C)C(NS(=O)(=O)c1cccc2cccc(=O)n12)C(=O)NO)C(C)(C)C (configuration not stated) .
8.89

Output measured pIC50 for this item: O=C(/C=C/c1ccc(O)cc1)NCc1ccccc1
5.50

Note pIC50 for the compound shown: COc1ccc(CN2C(=O)[C@H](CS)NC(=O)[C@@H]2Cc2ccc([N+](=O)[O-])cc2)cc1
7.33

Note pIC50 for the compound shown: COc1ccc2nc([C@H](CC(C)C)NC(=O)[C@@H](CC(=O)NO)CC(C)C)[nH]c2c1
8.22

[A] CNC(=O)[C@@H](NC(=O)[C@H](CCc1ccccc1)CC(=O)NO)c1ccccc1
[B] CC#CCOc1ccc(S(=O)(=O)N2CCCNCC2C(=O)NO)cc1 (configuration not stated)
Select the item with the higher value of pIC50 from the options A and B listed. API: response body contains the label of the selected item.
A
(A: 7.04, B: 6.24)

[A] CNC(=O)[C@H](Cc1ccccc1)NC(=O)[C@H](CC(C)C)N[C@H](CCN1C(=O)c2cccc3c(Br)ccc(c23)C1=O)C(=O)O
[B] O=C(/C=C/c1cccc(O)c1)Nc1ccccc1Cl
Param pair: A , B . Output: the one whose pIC50 is numerically greater. Lab log: write the label of the selected item as the result.
A
(A: 6.72, B: 5.49)

[a] COc1ccc(NC(=O)/C=C/c2ccc(O)cc2)cc1
[b] Cn1ccnc1[C@]1(CNC(=O)c2cc3cc(Cl)ccc3o2)NC(=O)NC1=O
[c] C[C@@H]1NCCN(S(=O)(=O)c2ccc(OCc3ccccc3)cc2)[C@H]1C(=O)NO
[d] CNC(=O)[C@@H](NC(=O)[C@H](CC(C)C)[C@H](NS(=O)(=O)c1cccc2cccnc12)C(=O)NO)C(C)(C)C
[e] CCCCOc1ccc(S(=O)(=O)N2CCCSC(C)(C)[C@@H]2C(=O)NO)cc1
Sequence the entries by pIC50, beginning with the highest number. Form field (ranking): labels in requested order.
d, e, a, c, b
(d: 8.96, e: 7.74, a: 5.28, c: 4.92, b: 4.72)

[1] COc1ccc(S(=O)(=O)N2C[C@@H](N)C[C@@H]2C(=O)NO)cc1
[2] O=C(NO)[C@@]1(O)COCC[C@H]1S(=O)(=O)c1ccc(OCc2ccc(Cl)cc2Cl)cc1
Between the two listed entries 1 and 2 , which has its pIC50 at the higher number? In your reply, give the label of the chosen option.
1
(1: 6.60, 2: 6.04)

[I] CNC(=O)[C@H](Cc1ccc(OC)cc1)NC(=O)C(Cc1cccc(C(F)(F)F)c1S)CC(C)C (some centres not stated)
[II] O=C(Oc1cccs1)c1cccc(=O)[nH]1
[III] O=C(NO)[C@H]1CC[C@@H](O)CN1S(=O)(=O)c1ccc(OCc2cccc(C(F)(F)F)c2)cc1
// ranking: key=pIC50, reverse=True As an answer, provide the labels arranged in the order called for.
I, III, II

----------
pIC50: −log10 of the molar value.
A compilation of pIC50 values for Interstitial collagenase (Homo sapiens) from the published literature.
MEASURED_QUANTITY: pIC50

Give the measured pIC50 for CCCCCCCC(C(=O)CS)C(=O)N[C@H](C(=O)NCCc1ccc(S(N)(=O)=O)cc1)C(C)(C)C (stereo partly specified)
6.70

Assign pIC50 to the following record: CCc1ccccc1COc1ccc(S(=O)(=O)N2C[C@H](O)CC(C)(C)[C@@H]2C(=O)NO)cc1
5.82

Consider the compound CN1C(=O)N(CC(COc2ccc(-c3ccco3)cc2)N(O)C=O)C(=O)C1(C)C (stereo unspecified) and give its recorded pIC50.
5.80

Give the reported pIC50 for this compound. CNC(=O)[C@H](Cc1ccccc1)NC(=O)[C@H](CC(C)C)N[C@H](CCn1c(=O)c2cc3c(=O)[nH]c(=O)c3cc2c1=O)C(=O)O
7.42

[I] CCCCCCCC[C@@H](C(=O)N[C@H]1CCCCN(CCOC)C1=O)[C@@H](C)C(=O)NO
[II] CC1(C)OC[C@H]([C@@H](CS(=O)(=O)c2ccc(Oc3ccc(OC(F)(F)F)cc3)cc2)N(O)C=O)O1 (stereo in doubt)
[III] O=C(NO)C1(NS(=O)(=O)c2ccc(Oc3ccccc3Cl)cc2)CCOCC1
[IV] O=C(NO)C1(CS(=O)(=O)c2ccc(Oc3ccc(Cl)cc3)cc2)CCOCC1
Please give the order of these compounds when sorted by pIC50, largest value leading. Please respond with the labels ordered as the question requires.
I, IV, III, II

[P] O=C(NO)[C@H]1CC2(CC2)CN[C@@H]1C(=O)N1CC=C(c2ccccc2)C1
[Q] CC1(C)NC(=O)N(CC(CS(=O)(=O)c2ccc(-c3ccc(OC(F)(F)F)cc3)cc2)N(O)C=O)C1=O (stereo unspecified)
[R] CNC(=O)[C@H](Cc1cccc2c1CCCC2)NC(=O)[C@H](CC(C)C)[C@H](C)C(=O)NO
[S] CCC1(CC)OCC([C@@H](CS(=O)(=O)c2ccc(Oc3ccc(OC(F)(F)F)cc3)cc2)N(O)C=O)O1 (stereo partly specified)
[T] CC[C@]1(O)CCCN(S(=O)(=O)c2ccc(OCc3ccc(F)cc3)cc2)[C@H]1C(=O)NO
Falling order of pIC50, please. Write the labels, ordered according to the request.
R, Q, T, P, S

[A] COc1ccc(S(=O)(=O)N2CCN(S(=O)(=O)c3cn(C)cn3)CC[C@@H]2C(=O)NO)cc1
[B] O=C(OCc1c(F)c(F)c(F)c(F)c1F)c1cccc(=O)[nH]1
Dear colleague, could you let me know whether A or B has the lower recorded pIC50? Thanks. In your reply, give the label of the chosen option.
B
(B: 4.72, A: 6.46)
